# Assay overview: xn = mol fraction of the nth substance listed
# Experimental context: 313.15 K; 101.3 kPa; Liquid; x2 = 0.1
Label No if viscosity falls below 2 mPa·s; label Yes in every other case.

[ask] Threshold query (viscosity >= 2 mPa·s) on CCCC(C)(C)O [2-methyl-2-pentanol] + CCCCN
[reply] No

[ask] Could you please find out whether CCCC(C)CO (stereo not given) [2-methyl-1-pentanol] + CCCCN has viscosity that meets 2 mPa·s or exceeds it?
[reply] Yes

[ask] Confirm if viscosity reported for the compound CCCC(O)CC (stereo not given) [3-hexanol] + CCCCN is 2 mPa·s or above.
[reply] Yes

[ask] Hello, I need to know if CC(C)CC(C)O (stereo not given) [4-methyl-2-pentanol] + CCCCN has measured viscosity not below 2 mPa·s. Thanks!
[reply] No

====

# Assay overview: xn = mol fraction of the nth substance listed
# Experimental context: 313.15 K; 101.3 kPa; Liquid; x2 = 0.9
Numbers after ± are expanded uncertainties.
Metric: mass density

The molecule identified as CCCC(O)CC (centres undefined) [3-hexanol] + CCCCN registered its mass density at 732.7 ± 1.2 kg/m3

Looking up CC(C)CC(C)O (centres undefined) [4-methyl-2-pentanol] + CCCCN , I see its mass density listed as 731.7 ± 1.2 kg/m3

// CCCCC(C)O (centres undefined) [2-hexanol] + CCCCN : mass density value = 732.9 ± 1.1 kg/m3

Record summary for CCCC(C)(C)O [2-methyl-2-pentanol] + CCCCN : reported mass density = 733.3 ± 1.1 kg/m3

====

# Experimental context: 313.15 K; 101.3 kPa; Liquid
Metric: viscosity (mPa·s)
Your answer is read as mPa·s, so omit the unit and give the number.

Reported viscosity of CC(C)CC(C)O (stereo unspecified) : 2.24

compound CCCC(C)(C)O , viscosity observed: 2.06

Entry CCCCN , viscosity reported as 0.4

Entry CCCCC(C)O (stereo unspecified) , viscosity reported as 2.29

// viscosity value for CCCC(O)CC (stereo unspecified) : 2.34

viscosity for CCCC(C)CO (stereo unspecified) is 3.18

====

For each entry below, report its mass density value.
# Experimental context: 303.15 K; 101.3 kPa; Liquid
Field: numeric (kg/m3). Do not append units.

Measured mass density, CCCCN : 732.1

For reference, reported mass density for CCCC(O)CC (stereo unspecified) stands at 810.2

Recorded mass density (compound CCCC(C)(C)O ): 810.8

compound CC(C)CC(C)O (stereo unspecified) , mass density observed: 799.3

Reported mass density of CCCCC(C)O (stereo unspecified) : 806.4

Value of measured mass density for the entry CCCC(C)CO (stereo unspecified) : 816.8

====

Assignment: determine reported mass density for the given compounds.
# Assay overview: xn = mol fraction of the nth substance listed
# Experimental context: 303.15 K; 101.3 kPa; Liquid; x2 = 0.3
Numbers after ± are expanded uncertainties.
Give me the value, and tack the unit on after it.

Entry CCCCC(C)O (centres undefined) [2-hexanol] + CCCCN — recorded mass density = 791.5 ± 1 kg/m3

The recorded mass density for entry CCCC(C)(C)O [2-methyl-2-pentanol] + CCCCN equals 795.7 ± 1 kg/m3

Item: CCCC(O)CC (centres undefined) [3-hexanol] + CCCCN | mass density: 795.6 ± 1.1 kg/m3

Briefly, mass density measured for CC(C)CC(C)O (centres undefined) [4-methyl-2-pentanol] + CCCCN : 785.2 ± 1 kg/m3

Source of measurements: the NIST ThermoML archive (doi:10.1021/je0498053)
